Molecular target: T1, Macaca fascicularis IL2Rγ extracellular domain expressed with a C-terminal myc-myc-hexahistidine tag (Macaca fascicularis)
T1 construct: also called mfIL-2Rg-MMH; mfIL-2RG-MMH
T1 chain: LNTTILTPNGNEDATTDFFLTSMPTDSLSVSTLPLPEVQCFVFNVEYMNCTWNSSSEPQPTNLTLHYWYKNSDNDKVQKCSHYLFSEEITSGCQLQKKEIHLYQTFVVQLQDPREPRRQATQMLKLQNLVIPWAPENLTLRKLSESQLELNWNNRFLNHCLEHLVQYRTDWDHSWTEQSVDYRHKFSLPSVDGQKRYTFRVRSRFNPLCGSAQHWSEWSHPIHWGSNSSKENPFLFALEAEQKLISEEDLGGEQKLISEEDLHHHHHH
Test: SPR Biacore 4000, mAb captured by anti-hFc, HBS-ET, 25C
measured.quantity: t1/2 (min)
Give the value in min but do not write min after it.

INPUT: Please report the recorded t1/2 for H4H12874P (antibody, human IgG4 S228P, kappa, V domains shown, anti-IL2Rγ monoclonal antibody expressed with human IgG4 Fc) VH: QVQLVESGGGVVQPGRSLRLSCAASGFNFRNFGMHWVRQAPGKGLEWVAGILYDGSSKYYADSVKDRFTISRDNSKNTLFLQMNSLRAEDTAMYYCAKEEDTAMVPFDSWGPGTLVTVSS VL: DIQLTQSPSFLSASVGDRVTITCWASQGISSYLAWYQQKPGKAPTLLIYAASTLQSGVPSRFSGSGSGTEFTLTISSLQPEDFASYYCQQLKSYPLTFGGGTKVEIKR .
OUTPUT: 38
